SYSTEM: hTGR5 (Homo sapiens, UniProt Q8TDU6)
Sequence (Q8TDU6 1-330): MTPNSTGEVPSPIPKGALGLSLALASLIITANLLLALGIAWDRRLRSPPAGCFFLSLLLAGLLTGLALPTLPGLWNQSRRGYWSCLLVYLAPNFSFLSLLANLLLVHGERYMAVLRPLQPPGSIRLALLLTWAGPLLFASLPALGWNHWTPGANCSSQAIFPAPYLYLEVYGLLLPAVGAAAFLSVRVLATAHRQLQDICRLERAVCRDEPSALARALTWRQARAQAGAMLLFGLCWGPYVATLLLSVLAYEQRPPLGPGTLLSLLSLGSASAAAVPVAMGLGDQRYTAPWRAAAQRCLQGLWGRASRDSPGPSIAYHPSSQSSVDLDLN
PROCEDURE TEXT: TGR5/CRE Luciferase Assay (hTGR5)
ASSAY SETUP: HEK 293 cells co-transfected with pCMV tag4b-TGR5h and pCRE TA-Luciferase; overnight incubation
pEC50: −log10 of the molar value.

COMPOUND | pEC50
COc1ccccc1COC(=O)C1=C(C)N(C[C@H]2CCCO2)C(=O)C[C@H]1c1cccnc1Cl (racemic) | 5.66
COCCN1C(=O)CC(c2ccc(Cl)cc2)C(C(=O)N2CCCc3ccccc32)=C1C (stereo not shown) | 5.54
CC1=C(C(=O)OCc2ccccc2)C(c2ccc(Cl)cc2)CC(=O)N1C (stereo not shown) | 6.22
CC1=C(C(=O)OCc2ccc(C(F)(F)F)cc2)C(c2ccc(Cl)cc2)CC(=O)N1C (stereo not shown) | 5.82
CN1C=C(C(=O)NCc2ccccc2)C(c2ccc(Cl)cc2)CC1=O (stereo not shown) | 5.34
CC1=C(C(=O)OCc2ccc(C)cc2)C(c2ccc(Cl)cc2)CC(=O)N1C (stereo not shown) | 6.15
COCCN1C(=O)CC(c2ccc(Cl)cc2)C(C(=O)OCc2ccc(F)cc2)=C1C (stereo not shown) | 6.40
COc1cccc(C2CC(=O)NC(C)=C2C(=O)OCc2ccccc2)c1 (stereo not shown) | 4.97
COCCN1C(=O)CC(c2ccc(Cl)cc2)C(C(=O)OCc2ccc(OCCC[N+](C)(C)C)cc2)=C1C.[I-] (stereo not shown) | 5.80
COCCN1C(=O)CC(c2ccc(Cl)c(Cl)c2)C(C(=O)OCc2ccccc2OC)=C1C (stereo not shown) | 7.00
CC1=C(C(=O)OCc2cccnc2)[C@H](c2ccc(Cl)cc2)CC(=O)N1C[C@H]1CCCO1 (racemic) | 6.46
C=C(C)CN1C(=O)CC(c2ccc(Cl)cc2)C(C(=O)OCc2ccccc2)=C1C (stereo not shown) | 5.89
COCCN1C(=O)CC(c2ccc(Cl)cc2)C(C(=O)OCc2ccccc2F)=C1C (stereo not shown) | 6.40
CN1C=C(C(=O)N(C)Cc2ccccc2)C(c2ccc(Cl)cc2)CC1=O (stereo not shown) [Compound 33a] | 4.41
COc1ccccc1COC(=O)C1=C(C)N(C[C@@H]2CCCO2)C(=O)C[C@H]1c1ccc(Cl)nc1 (racemic) [Example 159] | 7.43
CC1=C(C(=O)OCc2ccccc2)C(c2ccc(Cl)cc2)CC(=O)N1CCCN(C)C (stereo not shown) | 5.38
